B1: library; numbered along this chain (parent)
chain: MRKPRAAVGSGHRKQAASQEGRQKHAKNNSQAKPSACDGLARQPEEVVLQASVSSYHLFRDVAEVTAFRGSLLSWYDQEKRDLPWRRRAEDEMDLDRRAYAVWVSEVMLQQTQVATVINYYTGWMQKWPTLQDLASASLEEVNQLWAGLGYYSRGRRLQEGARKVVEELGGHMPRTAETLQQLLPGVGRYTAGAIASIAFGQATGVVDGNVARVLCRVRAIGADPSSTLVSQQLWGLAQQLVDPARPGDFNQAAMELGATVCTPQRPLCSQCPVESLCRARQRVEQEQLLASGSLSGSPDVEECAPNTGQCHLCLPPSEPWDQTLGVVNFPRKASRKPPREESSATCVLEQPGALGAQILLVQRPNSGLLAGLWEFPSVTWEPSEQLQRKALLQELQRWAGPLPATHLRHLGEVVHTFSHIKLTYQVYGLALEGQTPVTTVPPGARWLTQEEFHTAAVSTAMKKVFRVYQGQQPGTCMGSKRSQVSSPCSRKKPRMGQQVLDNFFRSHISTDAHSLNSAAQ

- Variants of: B1
- Method Notes: 8OG:A repair function score (normalized; synonymous = 0, nonsense = -1) (normalized log-likelihood score); higher = more repair activity (WT-like);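 also: cells sorted at 72 h after reporter transfection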
- Run Conditions: with 8OG:A DNA repair reporter (GFP) in HEK-293 MUTYH KO cells
Would you kindly list 8OG:A repair function score for each of these variants?
Give bare numbers.

Some solved cases for reference:
INSERT INTO measurements (variant_designation, endpoint_label, value_measured) VALUES
  ('L183E', '8OG:A repair function score', -0.0475),
  ('E92F', '8OG:A repair function score', -0.016),
  ('Q470I', '8OG:A repair function score', 0.00254);

Give measured 8OG:A repair function score for every item shown.
1. S294W
2. L234K
3. R491Y
4. G222A
5. L149M
6. T130P

## Output
1. -0.0117
2. -0.869
3. -0.0848
4. -0.213
5. -0.664
6. -0.9

Give measured 8OG:A repair function score for every item shown.
1. G412S
2. L373R

## Output
1: -0.26; 2: -0.666
